test: yeast transport mutant growth inhibition pilot in 384-well plates, post-Golgi transport modulator project (AID 636); settings: absorbance 615 nm, about 18 h, hits give high values
property_label: inhibition (%)
Numeric only. Scale: %

>>> print(df.to_string())
                                   compound  value_units  measured
0          CC[C@@H]1C(=O)OC[C@@H]1Cc1cncn1C            %     -3.12
1  O=C(CN(CC1CCCO1)C(=O)CCC(=O)Nc1ccccn1)NCC1CCCO1 (stereo not drawn)            %     -7.73

# evaluate next
Cc1cc(NCCCn2ccnc2)n2c(nc3ccccc32)c1C#N yielded inhibition of 4.29

----------
test: yeast transport mutant growth inhibition pilot in 384-well plates, post-Golgi transport modulator project (AID 636); details: absorbance 615 nm, about 18 h, hits give high values
property_label: inhibition (%)
Numeric only. Scale: %

Please review the following examples before continuing.
>>> print(df.to_string())
                                   compound  value_units  measured
0  COc1ccc(N2C(=O)CC(N3CCN(S(=O)(=O)c4c(F)cccc4F)CC3)C2=O)cc1OC (configuration not stated)            %     -2.34
1           Cc1ccc(C(=O)Nc2ccc3c(c2)OCO3)o1            %      -2.6
2  CSc1cccc(NC(=O)CN(C)S(=O)(=O)c2ccccc2)c1            %     -4.93
3  C=CCC(Nc1ccco1)c1ccccc1 (configuration not stated)            %     -3.55
4  O=S(=O)(c1ccccc1)N1CCSC1c1ccco1 (configuration not stated)            %     -0.13
5  CCCn1c(N2CCN(CC(=O)NCc3cccs3)CC2)nc2ccccc21            %     -4.47

# evaluate next
FC(F)(F)c1cc(-c2ccco2)nc(-n2nnc3ccccc32)n1 yielded inhibition of -0.91

----------
Entries and their viability values follow.
experiment: viability of HCT116 without oncogenic beta-catenin – human colon tumor cells, pilot screen (AID 823); conditions: HCT116 beta-catenin knockout viability, CellTiter-Glo, 60 h; at 10 µM; hits give low values;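 further: 0% = wells killed by 20 µM Hyamine and 100% = untreated DMSO cell wells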
Inconclusive results are not listed. The source made the active and inactive calls.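 The calls were made as follows: active = cell viability at or below a set limit in both duplicate runs, the limit being the all-compound median minus 4 SD (cut at about 23% in these data, passing the limit was not always enough); inconclusive = no clear call, values can overlap the other calls; inactive = the rest.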

In [3]: df
Out[3]:
                                   compound          measured
0  COc1ccc2cc(CCNC(=O)c3ccc(Br)o3)c(=O)[nH]c2c1  95.9% (inactive)
1      CCN1CCN(CC(=O)Nc2cccc(C)c2)C(=O)C1=O  99.6% (inactive)
2  Cc1ccc(-c2nn(-c3ccccc3)cc2C2SCC(=O)N2Cc2ccccc2)o1 (stereo unspecified)  74.2% (inactive)
3  COC(=O)c1ccc(CSc2ccc3nnc(-c4cccc(F)c4)n3n2)o1  87.9% (inactive)
4  CCOc1ccccc1NC1c2ccccc2C(=O)N1c1ccc(C)cn1 (stereo unspecified)  88.2% (inactive)

Cc1c(S(=O)(=O)N2CCc3ccccc3C2)c(=O)n(C)c(=O)n1C yielded viability of 103% (inactive)

----------
assay: S. cerevisiae growth inhibition in restrictive medium, OD615, pilot screen, restrictive growth control, yeast lifespan reduction project (AID 706); settings: OD615, 48 h, at 10 µM, hits give high values;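 further: modified DeaD lifespan yeast strain shifted to restrictive glucose medium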
property_label: growth inhibition (%)
Numeric only. Scale: %

Please review the following examples before continuing.
>>> print(df.to_string())
                                   compound  measured
0  O=C(c1cc(C2CC2)on1)N1CCN(c2ccc(F)cc2)CC1     -26.9
1  Cc1c(S(=O)(=O)N2CCc3ccccc3C2)c(=O)n(C)c(=O)n1C     -10.4
2        Clc1ccccc1-c1nnc2sc(-c3ccncc3)nn12      19.3
3  COC(=O)c1ccc(C)c(NC(=O)CN(c2cc(OC)ccc2OC)S(C)(=O)=O)c1     -3.94
4  COc1cc(C2CC(=O)c3c([nH]c(C(=O)OCCOC(C)C)c3C)C2)cc(OC)c1OC (configuration not stated)     -28.2

CCOC(=O)C1Cn2c(nc3c(c2=O)C2(CCCC2)Cc2ccccc2-3)S1 (configuration not stated) yielded growth inhibition of -1.87

Clc1ccc(Cc2nnc(-c3cccs3)o2)cc1 yielded growth inhibition of 5.1

Nc1ccc(S(=O)(=O)N2CCCc3ccccc32)cc1 yielded growth inhibition of -24

COc1cc2[nH]c(=O)n(Cc3ccc(C(=O)NCC4CCCO4)cc3)c(=O)c2cc1OC (configuration not stated) yielded growth inhibition of -17.9

Cc1noc(/C=C/N(C)C)c1S(=O)(=O)N1CCCC(C(=O)NCc2cccs2)C1 (configuration not stated) yielded growth inhibition of -3.34

----------
assay: viability of HCT116 without oncogenic beta-catenin – human colon tumor cells, pilot screen (AID 823); conditions: HCT116 beta-catenin knockout viability, CellTiter-Glo, 60 h; at 10 µM; hits give low values;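 further: 0% = wells killed by 20 µM Hyamine and 100% = untreated DMSO cell wells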
Records with an inconclusive call do not appear.
Classify: yes when viability is strictly less than 90%; no when viability is not.

                                   compound  assigned_category
0  CSc1nc(NCCOCCO)c2sc3nc(-c4ccco4)c4c(c3c2n1)CCC4                yes
1      CCOC(=O)C1CCN(C(=O)Nc2ccc(Cl)cc2)CC1                 no
2  COc1ccc(-c2nc(CS(=O)CC(=O)NCc3ccc4c(c3)OCO4)c(C)o2)cc1 (stereo unspecified)                 no
3  Cc1ccc(-c2nc(CS(=O)CC(=O)NCc3ccc(Cl)cc3)c(C)o2)cc1 (stereo unspecified)                yes
4  COc1cc(OC)c(NC(=O)CS(=O)(=O)Cc2nc(-c3ccc(C)cc3)oc2C)cc1Cl                yes
5  Cc1cccc(N2CCN(C(=O)c3cc4c(C)nc5ccccc5c4o3)CC2)c1C                yes
6            C=CCSc1nnc2c(n1)OC=Nc1ccccc1-2                 no
7  CCC(C)(C(=O)NC1CCCC1)N(C(=O)CNC(C)=O)c1ccc(C)cc1 (stereo unspecified)                 no

Here is the next item to consider.
INPUT: Record COc1ccc(OC)c(NC(=O)C2COc3ccccc3O2)c1 (stereo unspecified) : is its viability strictly below 90%?
OUTPUT: yes

----------
test: RAM pathway blockade in budding yeast – dse1pr::URA3 reporter, 5-FOA selection, pilot screen (AID 869);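 further: 0% = DMSO wells with no growth and 100% = 10 µM 1-NA-PP1 with full growth; RAM network block rescues cells from 5-FOA so hits raise OD615 growth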; details: S. cerevisiae dse1pr::URA3 5-FOA growth, OD615, 2 d; at 10 µM; hits give high values; strain carries analog-sensitive mutant Cbk1 kinase
property_label: inhibition (%)
Numeric only. Scale: %

Please review the following examples before continuing.
>>> df
                                   molecule  property_label  measured
0  N#CCCn1cc(C(CC(=O)c2ccc(Br)cc2)C(=O)O)c2ccccc21 (centres undefined)      inhibition      1.56
1            C=CCSc1nnc2c(n1)OC=Nc1ccccc1-2      inhibition      3.17
2           Cn1c(SCc2ccccc2Cl)nnc1-c1cnccn1      inhibition      2.44

# evaluate next
CN1CSC2=C(C#N)C(c3cccc(OCc4ccccc4)c3)CC(=O)N2C1 (centres undefined) yielded inhibition of 0.785

----------
Entries and their growth inhibition values follow.
test: S. cerevisiae growth inhibition in permissive medium (OD615), pilot counter-assay for S. cerevisiae lifespan shortening project, permissive growth control (AID 705); settings: OD615, 24 h, at 10 µM, hits give high values
Numeric only. Scale: %

Please review the following examples before continuing.
>>> df
                                   molecule  measured
0  Cc1ccccc1S(=O)(=O)Cc1ccc(C(=O)N2CC(C)CC(C)C2)o1 (centres undefined)     -18.1
1  COc1cc2[nH]c(=O)n(Cc3ccc(C(=O)NCC4CCCO4)cc3)c(=O)c2cc1OC (centres undefined)     -14.9

C(#Cc1ccccc1)CN1CCN(c2ccccn2)CC1 yielded growth inhibition of -7.33

NC/C(=N\O)c1ccc(Cl)cc1Cl yielded growth inhibition of -6.44

O=C(O)CC1C(=O)NCCN1C/C=C/c1ccccc1 (centres undefined) yielded growth inhibition of -17.1

O=C(Cn1cc2c(n1)CCCCC2)NCCCN1CCOCC1 yielded growth inhibition of -9.29

COc1ccccc1OCCSc1nnnn1-c1ccc(C)cc1 yielded growth inhibition of -13.8

COC(=O)C1=C(N)N(c2ccc(F)cc2)C2=C(C(=O)CCC2)C1c1ccc2c(c1)OCO2 (centres undefined) yielded growth inhibition of -6.41

N#CCCn1cc(C(CC(=O)c2ccc(Br)cc2)C(=O)O)c2ccccc21 (centres undefined) yielded growth inhibition of 3.64

Cn1c(SCc2ccccc2Cl)nnc1-c1cnccn1 yielded growth inhibition of -2.59

CCOc1ccccc1NC1c2ccccc2C(=O)N1c1ccc(C)cn1 (centres undefined) yielded growth inhibition of -14.3

CC(C)Oc1ccc(NC(=O)Oc2ccccc2)cc1 yielded growth inhibition of -4.28

COC(=O)c1ccc(CSc2ccc3nnc(-c4cccc(F)c4)n3n2)o1 yielded growth inhibition of 6.12

COc1ccc2cc(CCNC(=O)c3ccc(Br)o3)c(=O)[nH]c2c1 yielded growth inhibition of -10.1

COC(=O)CSc1nc2ccc(NC(=O)CSc3nnnn3Cc3ccccc3)cc2s1 yielded growth inhibition of -3.46

O=S1(=O)C=C(SCCN2CCCCC2)c2ccccc21 yielded growth inhibition of -4.08

COc1cc2c(cc1OC)C(C)N(C(=O)c1cc3ccccc3o1)CC2 (centres undefined) yielded growth inhibition of -11.9

C=CCNc1ncnc2c1cnn2-c1ccc(Cl)cc1 yielded growth inhibition of -2.23

CCC1(C)Cc2ccccc2-c2nc3n(c(=O)c21)CCCCC3 (centres undefined) yielded growth inhibition of -8.71

CCCCSc1nc2c(c(=O)[nH]c(=O)n2C)n1CCc1ccccc1 yielded growth inhibition of -16.6

N#Cc1c(NC(=O)CCCN2C(=O)c3ccccc3C2=O)oc(-c2ccccc2)c1-c1ccccc1 yielded growth inhibition of -1.81

COc1ccc(OC)c(NC(=O)CN(c2ccc(C(C)C)cc2)S(=O)(=O)c2c(C)noc2C)c1 yielded growth inhibition of -11.5

The values you see were collected from PubChem BioAssay.
